Measured pIC50 accompanies every entry in the list below.
test system: PC-3; assay: Cytotoxicity against human PC3 cells after 72 hrs by MTT assay; format: functional, cell-based; settings: PC-3, 72 h
In plain terms, pIC50 is the concentration in mol/L turned into minus its base-10 logarithm.

As a guide, the following entries are already answered.
[
  {
    "Structure": "CCOP(=O)(CCCN1C/C(=C\\c2ccc(F)cc2)C(=O)/C(=C/c2ccc(F)cc2)C1)OCC",
    "Measured metric": "pIC50",
    "Quantitative result": 5.74
  },
  {
    "Structure": "N[C@@H](Cc1ccc(N(CCCl)CCCl)cc1)C(=O)O",
    "Measured metric": "pIC50",
    "Quantitative result": 4.15
  },
  {
    "Structure": "O=C1/C(=C/c2ccc(F)cc2)CNC/C1=C\\c1ccc(F)cc1",
    "Measured metric": "pIC50",
    "Quantitative result": 5.22
  },
  {
    "Structure": "CCOP(=O)(CCN1C/C(=C\\c2ccc(F)cc2)C(=O)/C(=C/c2ccc(F)cc2)C1)OCC",
    "Measured metric": "pIC50",
    "Quantitative result": 5.40
  },
  {
    "Structure": "CCOP(=O)(CN1C/C(=C\\c2ccc(N(C)C)cc2)C(=O)/C(=C/c2ccc(N(C)C)cc2)C1)OCC",
    "Measured metric": "pIC50",
    "Quantitative result": 4.52
  },
  {
    "Structure": "O=C1/C(=C/c2ccc([N+](=O)[O-])cc2)CNC/C1=C\\c1ccc([N+](=O)[O-])cc1",
    "Measured metric": "pIC50",
    "Quantitative result": 5.81
  }
]

Request: Specify pIC50 for CCOP(=O)(CCCCN1C/C(=C\c2ccc([N+](=O)[O-])cc2)C(=O)/C(=C/c2ccc([N+](=O)[O-])cc2)C1)OCC and stop.
Response: 5.92

Request: Specify pIC50 for CCOP(=O)(CCCN1C/C(=C\c2ccc([N+](=O)[O-])cc2)C(=O)/C(=C/c2ccc([N+](=O)[O-])cc2)C1)OCC and stop.
Response: 6.15
